target_system: HLA-A*23:01
experiment_description: IEDB peptide-MHC binding, purified MHC/direct/fluorescence; filed as Kd, often an IC50 or EC50 that approximates it; bounds were set here for any values at or beyond the usual limits of such assays
particulars: source organism: Vibrio vulnificus YJ016

{"columns": ["input_sequence", "Kd"],
 "data": [
  ["TSCAPMMQK", "≥ 20 µM"]
]}

* * *

target_system: HLA-B*51:01
experiment_description: IEDB peptide-MHC binding, purified MHC/competitive/radioactivity; filed as Kd, often an IC50 or EC50 that approximates it; bounds were set here for any values at or beyond the usual limits of such assays
particulars: source organism: Dengue virus 4 Philippines/H241/1956

{"columns": ["input_sequence", "Kd"],
 "data": [
  ["TPKGAVMDI", "4.22 µM"],
  ["GPLRMVLAFI", "≥ 35.5 µM"]
]}
